# TEST_METHOD_NOTES: Drug concentration in plasma of collagen-induced arthritis Lewis rat model 10 mg/kg/day, po measured after 6 hrs post-collection of plasma
# Format: ADME, organism-based
VALUE_KIND: concentration at 6 h (ng/mL)

[
  {
    "CPD_SMILES": "CC(C)(C)/C=C(\\C#N)C(=O)N1CCC[C@@H](n2nc(-c3ccc(Oc4ccccc4)cc3F)c3c(N)ncnc32)C1",
    "VALUE_KIND": "concentration at 6 h",
    "NUMERIC_READOUT": 40.2
  }
]

----------
# SYSTEM_NAME: Tyrosine-protein kinase Blk (Homo sapiens, UniProt P51451)
# Sequence (P51451 whole entry): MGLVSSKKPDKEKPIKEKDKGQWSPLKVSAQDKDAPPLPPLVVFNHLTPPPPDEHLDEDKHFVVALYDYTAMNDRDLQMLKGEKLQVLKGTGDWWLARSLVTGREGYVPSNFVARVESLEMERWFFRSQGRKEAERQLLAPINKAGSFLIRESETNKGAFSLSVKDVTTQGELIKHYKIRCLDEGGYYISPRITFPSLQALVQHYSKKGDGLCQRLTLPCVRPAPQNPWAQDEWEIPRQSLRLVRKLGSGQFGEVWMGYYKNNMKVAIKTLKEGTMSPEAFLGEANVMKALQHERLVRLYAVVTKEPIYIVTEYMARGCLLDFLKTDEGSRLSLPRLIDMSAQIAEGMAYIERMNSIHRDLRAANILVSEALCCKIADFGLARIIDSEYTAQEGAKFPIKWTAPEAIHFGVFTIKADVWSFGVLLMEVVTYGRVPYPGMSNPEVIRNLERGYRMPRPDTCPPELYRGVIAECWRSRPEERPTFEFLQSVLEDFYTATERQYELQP
# TEST_METHOD_NOTES: Inhibition of BLK (unknown origin) using peptide substrate in presence of ATP by caliper electrophoresis method
Here, each record is paired with measured IC50 data.

[
  {
    "MOLECULE": "CC(C)(C)/C=C(\\C#N)C(=O)N1CCC[C@@H](n2nc(-c3ccc(Oc4ccccc4)cc3F)c3c(N)ncnc32)C1 [ATUZABRUTINIB]",
    "IC50": "2.2 nM"
  },
  {
    "MOLECULE": "CC(C)(/C=C(/C#N)C(=O)N1CCC[C@@H]1Cn1nc(-c2ccc(Oc3ccccc3)cc2F)c2c(N)ncnc21)N1CCOCC1",
    "IC50": "92 nM"
  },
  {
    "MOLECULE": "CN1CCN(C(C)(C)/C=C(\\C#N)C(=O)N2CCC[C@@H](n3nc(-c4ccc(Oc5ccccc5)cc4F)c4c(N)ncnc43)C2)CC1",
    "IC50": "0.5 nM"
  }
]

Ref: ChEMBL document CHEMBL5104103
